Target: furin, P09958;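 also: purified furin at 1:10 enzyme:substrate in 50 mM HEPES pH 7.5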
Sequence (P09958 whole entry): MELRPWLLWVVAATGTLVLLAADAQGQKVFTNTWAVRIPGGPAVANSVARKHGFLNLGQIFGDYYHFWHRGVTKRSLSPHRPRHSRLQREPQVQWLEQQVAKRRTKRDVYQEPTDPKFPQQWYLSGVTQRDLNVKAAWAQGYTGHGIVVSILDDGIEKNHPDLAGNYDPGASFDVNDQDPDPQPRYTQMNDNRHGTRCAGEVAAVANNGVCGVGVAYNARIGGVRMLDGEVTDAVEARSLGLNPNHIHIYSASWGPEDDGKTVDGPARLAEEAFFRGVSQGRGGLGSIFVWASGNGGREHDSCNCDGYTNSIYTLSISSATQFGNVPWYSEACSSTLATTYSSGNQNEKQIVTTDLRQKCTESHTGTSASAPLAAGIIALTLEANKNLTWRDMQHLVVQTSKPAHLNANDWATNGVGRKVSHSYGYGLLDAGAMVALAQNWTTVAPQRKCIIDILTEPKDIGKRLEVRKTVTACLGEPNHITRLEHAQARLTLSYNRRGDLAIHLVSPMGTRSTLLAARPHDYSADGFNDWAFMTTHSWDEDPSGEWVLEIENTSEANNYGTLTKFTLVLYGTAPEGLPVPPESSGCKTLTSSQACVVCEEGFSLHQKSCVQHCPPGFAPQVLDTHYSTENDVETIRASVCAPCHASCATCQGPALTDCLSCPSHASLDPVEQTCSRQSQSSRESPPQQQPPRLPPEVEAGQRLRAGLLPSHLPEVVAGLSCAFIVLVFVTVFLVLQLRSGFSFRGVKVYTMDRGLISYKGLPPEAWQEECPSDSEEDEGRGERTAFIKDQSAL
Experiment: furin cleavage Z-score vs untreated control; higher = more cleavage, active = 3.5 or more, inactive = 1 or less, 8 variable residues between constant flanks
Details: 15 min
Some of the results follow. The true hit rate is not given.
So basically: furin cleavage Z-score at 6 or higher? That is Y. Lower than 6? That is N.

polymer-sequence: CAQLLRRRRAAGNASASA [FS-1475]
discrete-label: N
--
polymer-sequence: CARSKRTEQDAGNASASA [FS-2088]
discrete-label: N
--
polymer-sequence: CAQLLRRLHQAGNASASA [HC1138]
discrete-label: N
--
polymer-sequence: CAFLSRRRRAAGNASASA [FS-326]
discrete-label: Y
--
polymer-sequence: CANFKRSVASAGNASASA [FS-1847]
discrete-label: N

FYI, the data here is from the supplement of paper PMC3545927.
